TGI listing for selected compounds.
test system: BT-549 breast; test: NCI tumour cell line growth inhibition, 48 h
Give your result in µM as a bare value.

# annotated cases, reported TGI shown
| COMPOUND | TGI [µM] |
| --- | --- |
| CN1CCCNc2c(c(=O)c2=O)NCCCN(C)CCCNc2c(c(=O)c2=O)NCCCN(C)CCCNc2c(c(=O)c2=O)NCCCN(C)CCCNc2c(c(=O)c2=O)NCCCN(C)CCCNc2c(c(=O)c2=O)NCCCN(C)CCCNc2c(c(=O)c2=O)NCCCN(C)CCCNc2c(c(=O)c2=O)NCCC1 | 19.8 |
| O=C(O)C1C(C(=O)Nc2ccc3c(c2)Cc2ccccc2-3)C2(Cl)C(Cl)=C(Cl)C1(Cl)C2(Cl)Cl (configuration not stated) | 39.2 |
| Cc1ccc(NC(=O)NC(=O)c2ccc([N+](=O)[O-])cc2[N+](=O)[O-])cc1Oc1ncc(Cl)cn1 | 32.7 |

We now examine a further compound.
Value lookup for TGI; key = COCC1OC(OC2C3=C(C(C)C)CCC3(C)/C=C3\C(CCC3(O)COC)C(C)C2O)C(O)C2OC3OC12OC3(C)C1CO1 (configuration not stated) 87.8
